Hey, just so you know, these numbers are from patent US7074789B2.

- targetDesc: AKT (Homo sapiens)
- Construct: Kinases are expressed as either kinase domains or full length constructs; made in house
- Sequence (Q9Y243 whole entry, the tested form may be a part): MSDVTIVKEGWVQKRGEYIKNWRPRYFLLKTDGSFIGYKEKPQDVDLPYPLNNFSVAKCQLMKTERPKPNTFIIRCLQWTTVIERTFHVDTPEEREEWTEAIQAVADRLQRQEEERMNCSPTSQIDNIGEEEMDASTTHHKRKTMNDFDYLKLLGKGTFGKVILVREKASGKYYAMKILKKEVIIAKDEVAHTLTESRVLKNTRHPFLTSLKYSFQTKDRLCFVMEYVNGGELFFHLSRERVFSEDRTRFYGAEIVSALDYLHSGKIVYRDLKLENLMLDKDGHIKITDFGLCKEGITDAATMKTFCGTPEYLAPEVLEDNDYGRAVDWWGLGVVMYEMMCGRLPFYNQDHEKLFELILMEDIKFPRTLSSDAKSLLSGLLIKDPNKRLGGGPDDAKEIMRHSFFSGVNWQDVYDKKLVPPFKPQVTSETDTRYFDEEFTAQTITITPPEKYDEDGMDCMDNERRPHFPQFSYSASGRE
- testMethodNotes: Kinase inhibition assay (33P transfer), AKT
- Type: biochemical
- conditionSummary: Table 2, kinase inhibition class; read-out: AKT3-1
pIC50: −log10 of the molar value.
Provide the reported pIC50 of each item.

In plain terms, `COc1cc(Nc2ncnc(-n3ccc4cc(F)ccc43)n2)cc(OC)c1OC` has a documented pIC50 of < 4.94

In plain terms, `COc1cc(Nc2ncnc(-c3cc4ccccc4s3)n2)cc(OC)c1OC` has a documented pIC50 of < 4.94

In plain terms, `COCCOc1ccc(Nc2ncnc(-c3ccccc3)n2)cc1` has a documented pIC50 of < 4.86

In plain terms, `COc1ccc(Nc2ncnc(-n3c(N)nc4ccccc43)n2)cc1OC` has a documented pIC50 of < 4.91

In plain terms, `COc1cc(Nc2ncnc(Nc3ccccc3C)n2)cc(OC)c1OC` has a documented pIC50 of < 4.91

* * *

- targetDesc: Itk (Homo sapiens, UniProt Q08881)
- Construct: Kinases are expressed as either kinase domains or full length constructs; made in house
- Sequence (Q08881 whole entry, species assumed, the tested form may be a part): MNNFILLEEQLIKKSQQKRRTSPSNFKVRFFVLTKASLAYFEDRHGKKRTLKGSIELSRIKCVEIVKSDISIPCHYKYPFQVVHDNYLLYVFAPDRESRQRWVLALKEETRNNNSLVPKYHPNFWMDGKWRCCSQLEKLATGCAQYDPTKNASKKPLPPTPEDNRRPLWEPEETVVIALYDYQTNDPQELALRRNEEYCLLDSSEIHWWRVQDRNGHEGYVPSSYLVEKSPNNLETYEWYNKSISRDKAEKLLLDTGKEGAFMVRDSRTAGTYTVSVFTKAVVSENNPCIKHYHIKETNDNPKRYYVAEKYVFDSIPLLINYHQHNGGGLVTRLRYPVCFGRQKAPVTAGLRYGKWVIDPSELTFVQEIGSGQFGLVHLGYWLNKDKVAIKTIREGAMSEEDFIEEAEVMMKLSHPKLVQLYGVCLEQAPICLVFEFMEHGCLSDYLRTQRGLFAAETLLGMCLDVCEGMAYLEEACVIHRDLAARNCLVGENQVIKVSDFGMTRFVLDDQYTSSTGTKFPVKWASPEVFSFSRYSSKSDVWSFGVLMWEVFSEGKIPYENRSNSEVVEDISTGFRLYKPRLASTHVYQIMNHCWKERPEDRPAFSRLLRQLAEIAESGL
- testMethodNotes: Kinase inhibition assay (33P transfer), Itk
- Assay type: biochemical
- conditionSummary: read-out: Itk-1
measurementName: IC50

In plain terms, `Cc1ccc2c(c1)CCCN2c1ncnc(NCCN2CCOCC2)n1` has a documented IC50 of > 12.7 µM

In plain terms, `O=c1[nH]c2ccccc2n1-c1ncnc(Nc2ccc(Cl)cc2Cl)n1` has a documented IC50 of > 12.1 µM

In plain terms, `COc1cc(Nc2ncnc(Nc3ccc4nn(C)cc4c3)n2)cc(OC)c1OC` has a documented IC50 of 0.982 to 5.89 µM

In plain terms, `COc1ccc(Nc2ncnc(NCc3c(C)cccc3Cl)n2)cc1OC` has a documented IC50 of > 11.7 µM

In plain terms, `COc1cc(Nc2ncnc(-c3ccc(NCCCO)nc3)n2)cc(OC)c1OC` has a documented IC50 of > 10.9 µM

In plain terms, `COC(=O)c1ccc(-c2cc(Nc3ncnc(Nc4cc(OC)c(OC)c(OC)c4)n3)[nH]n2)cc1` has a documented IC50 of 7.33 to 9.42 µM

In plain terms, `COc1cc(Nc2ncnc(-n3c(NCc4cccc([N+](=O)[O-])c4)nc4ccccc43)n2)cc(OC)c1OC` has a documented IC50 of > 8.51 µM

In plain terms, `COc1cc(Nc2ncnc(N3CCCc4ccc(C(F)(F)F)cc43)n2)cc(OC)c1OC` has a documented IC50 of > 9.75 µM

* * *

Provide the reported pIC50 of each item.
- targetDesc: AKT (Homo sapiens)
- Construct: Kinases are expressed as either kinase domains or full length constructs; made in house
- testMethodNotes: Kinase inhibition assay (33P transfer), AKT
- Format: biochemical
- conditionSummary: Table 2, class symbols A-E; read-out: AKT3-1
pIC50: −log10 of the molar value.

Test item `COc1ccc(Nc2ncnc(Nc3ccc4c(c3)C(=O)OC4)n2)cc1OC` ; AKT (Homo sapiens); reported pIC50 was < 4.93

Test item `COc1cc(Nc2ncnc(N3CCCc4ccc(Cl)cc43)n2)cc(OC)c1OC` ; AKT (Homo sapiens); reported pIC50 was < 4.98

Test item `CC(C)Nc1ncccc1-c1ncnc(Nc2cccc(CO)c2)n1` ; AKT (Homo sapiens); reported pIC50 was < 4.87

Test item `COC(=O)c1ccc(-c2cc(Nc3ncnc(NCCN4CCNC4=O)n3)[nH]n2)cc1` ; AKT (Homo sapiens); reported pIC50 was < 4.97

Test item `COc1ccc(Nc2ncnc(Nc3ccc4ncsc4c3)n2)cc1OC` ; AKT (Homo sapiens); reported pIC50 was < 4.93

Test item `COc1cc(Nc2ncnc(N(C)c3cccc(Cl)c3)n2)cc2ccccc12` ; AKT (Homo sapiens); reported pIC50 was < 4.94

Test item `COc1cc(Nc2ncnc(-c3cccnc3NCc3ccccc3OC(F)(F)F)n2)cc(OC)c1OC` ; AKT (Homo sapiens); reported pIC50 was < 5.07

Test item `COc1ccc(Nc2ncnc(N(C)c3ccc(F)cc3F)n2)cc1OC` ; AKT (Homo sapiens); reported pIC50 was < 4.92

Test item `CN(c1ccc2c(cnn2Cc2ccccc2)c1)c1ncnc(Nc2cccc(Cc3nnn[nH]3)c2)n1` ; AKT (Homo sapiens); reported pIC50 was < 5.04

* * *

Provide the reported pIC50 of each item.
- targetDesc: c-Met (Homo sapiens, UniProt P08581)
- Construct: Kinases are expressed as either kinase domains or full length constructs; made in house
- Sequence (P08581 25-1390): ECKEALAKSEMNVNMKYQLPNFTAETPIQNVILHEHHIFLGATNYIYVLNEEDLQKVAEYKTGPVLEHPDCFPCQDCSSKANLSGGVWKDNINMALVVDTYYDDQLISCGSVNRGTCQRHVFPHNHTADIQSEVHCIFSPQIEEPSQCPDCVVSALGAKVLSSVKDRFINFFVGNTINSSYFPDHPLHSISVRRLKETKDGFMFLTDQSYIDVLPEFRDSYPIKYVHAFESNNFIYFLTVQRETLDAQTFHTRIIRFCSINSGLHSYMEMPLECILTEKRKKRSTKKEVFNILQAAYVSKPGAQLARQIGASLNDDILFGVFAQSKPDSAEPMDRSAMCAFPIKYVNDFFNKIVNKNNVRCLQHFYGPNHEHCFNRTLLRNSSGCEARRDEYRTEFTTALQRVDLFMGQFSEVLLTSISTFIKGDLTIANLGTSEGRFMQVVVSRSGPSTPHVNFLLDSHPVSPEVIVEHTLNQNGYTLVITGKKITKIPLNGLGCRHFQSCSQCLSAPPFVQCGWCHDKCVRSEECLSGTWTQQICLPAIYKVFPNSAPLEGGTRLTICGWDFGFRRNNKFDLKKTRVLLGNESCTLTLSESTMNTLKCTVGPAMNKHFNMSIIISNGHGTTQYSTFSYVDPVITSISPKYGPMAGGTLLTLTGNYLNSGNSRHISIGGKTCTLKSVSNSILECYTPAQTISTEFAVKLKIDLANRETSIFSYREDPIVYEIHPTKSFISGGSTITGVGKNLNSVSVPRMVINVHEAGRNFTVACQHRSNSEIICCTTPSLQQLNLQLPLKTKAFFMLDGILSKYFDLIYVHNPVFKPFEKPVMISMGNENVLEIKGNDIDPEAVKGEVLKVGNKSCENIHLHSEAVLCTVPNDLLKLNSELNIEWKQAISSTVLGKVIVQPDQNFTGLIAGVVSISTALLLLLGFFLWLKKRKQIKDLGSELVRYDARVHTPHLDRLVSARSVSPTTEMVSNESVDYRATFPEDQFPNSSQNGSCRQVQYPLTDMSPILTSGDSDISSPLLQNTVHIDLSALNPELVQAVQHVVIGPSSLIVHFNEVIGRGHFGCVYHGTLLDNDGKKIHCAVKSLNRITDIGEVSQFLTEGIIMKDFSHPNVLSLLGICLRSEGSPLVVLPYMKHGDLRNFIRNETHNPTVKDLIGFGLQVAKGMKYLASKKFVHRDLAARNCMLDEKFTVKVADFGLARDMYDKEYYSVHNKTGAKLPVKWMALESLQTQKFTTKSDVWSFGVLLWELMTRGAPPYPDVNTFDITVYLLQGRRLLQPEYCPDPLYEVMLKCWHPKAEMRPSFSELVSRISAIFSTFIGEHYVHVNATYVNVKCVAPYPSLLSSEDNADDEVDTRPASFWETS
- testMethodNotes: Kinase inhibition assay (33P transfer), c-Met
- Type: biochemical
- conditionSummary: Table 2, kinase inhibition class; read-out: Met-1
pIC50: −log10 of the molar value.

Test item COc1cc(Nc2ncnc(Nc3ccc(C)cc3F)n2)cc(OC)c1OC [Compound 937] ; c-Met (Homo sapiens, UniProt P08581); reported pIC50 was 5.04 to 5.21

Test item CN(c1cccc(Cl)c1)c1ncnc(Nc2cccc(CNC(=O)O[C@@H]3CCOC3)c2)n1 [Compound 721] ; c-Met (Homo sapiens, UniProt P08581); reported pIC50 was 5.28 to 6.06

Test item NC(=O)c1ccc(Nc2ncnc(-c3cccs3)n2)cc1 [Compound 354] ; c-Met (Homo sapiens, UniProt P08581); reported pIC50 was < 4.82

Test item COc1cc(Nc2ncnc(N(C)c3cccc(Cl)c3)n2)cc(OC)c1 [Compound 712] ; c-Met (Homo sapiens, UniProt P08581); reported pIC50 was 5.19 to 5.97

Test item CN(c1cccc(Cl)c1)c1ncnc(NCCN2CCCCC2)n1 [Compound 740] ; c-Met (Homo sapiens, UniProt P08581); reported pIC50 was < 4.89

Test item COc1cc(Nc2ncnc(-n3c(NCc4cccs4)nc4ccccc43)n2)cc(OC)c1OC [Compound 950] ; c-Met (Homo sapiens, UniProt P08581); reported pIC50 was < 5.04

Test item O=c1[nH]c2ccccc2n1-c1ncnc(Nc2ccc(C(F)(F)F)cc2)n1 [Compound 505] ; c-Met (Homo sapiens, UniProt P08581); reported pIC50 was < 4.92

Test item COc1cc(Nc2ncnc(-n3c(NC(C)=O)nc4ccccc43)n2)cc(OC)c1OC [Compound 334] ; c-Met (Homo sapiens, UniProt P08581); reported pIC50 was < 4.99

Test item COc1cc(Nc2ncnc(Nc3cc(-c4ccc(C)cc4)n[nH]3)n2)cc(OC)c1OC [Compound 521] ; c-Met (Homo sapiens, UniProt P08581); reported pIC50 was > 6.03

Test item COc1cc(Nc2ncnc(-n3c(NCc4ccccn4)nc4ccccc43)n2)cc(OC)c1OC [Compound 414] ; c-Met (Homo sapiens, UniProt P08581); reported pIC50 was < 5.03

Test item O=c1[nH]c2ccccc2n1-c1ncnc(Nc2ccc(OC(F)(F)F)cc2)n1 [Compound 462] ; c-Met (Homo sapiens, UniProt P08581); reported pIC50 was 4.94 to 5.05

Test item COc1cc(Nc2ncnc(-c3cccnc3NCCCN)n2)cc(OC)c1OC [Compound 1078] ; c-Met (Homo sapiens, UniProt P08581); reported pIC50 was < 4.96

Test item COc1ccc(Nc2ncnc(NCCCN3CCCCC3C)n2)cc1OC (centres unmarked) [Compound 782] ; c-Met (Homo sapiens, UniProt P08581); reported pIC50 was < 4.93

Test item COc1cc(Nc2ncnc(-n3c(NCc4cccc(C)c4)nc4ccccc43)n2)cc(OC)c1OC [Compound 515] ; c-Met (Homo sapiens, UniProt P08581); reported pIC50 was < 5.04

Test item COc1ccccc1Nc1ncnc(-c2ccccc2)n1 [Compound 12] ; c-Met (Homo sapiens, UniProt P08581); reported pIC50 was < 4.79

Test item COc1cc(Nc2ncnc(-n3ccc4cccnc43)n2)cc(OC)c1OC [Compound 327] ; c-Met (Homo sapiens, UniProt P08581); reported pIC50 was < 4.92

Test item COc1ccc(Nc2ncnc(-n3c(=O)[nH]c4ccccc43)n2)cc1OC [Compound 494] ; c-Met (Homo sapiens, UniProt P08581); reported pIC50 was < 4.91

Test item COc1cc(Nc2ncnc(Nc3ccc4c(c3)CCC4)n2)cc(OC)c1OC [Compound 629] ; c-Met (Homo sapiens, UniProt P08581); reported pIC50 was 5.05 to 5.21

Test item COc1cc(Nc2ncnc(Nc3cccc(Cl)c3)n2)cc(OC)c1OC [Compound 135] ; c-Met (Homo sapiens, UniProt P08581); reported pIC50 was 5.21 to 5.99

Test item COc1cc(Nc2ncnc(-c3ccnc(Cl)c3)n2)cc(OC)c1OC [Compound 331] ; c-Met (Homo sapiens, UniProt P08581); reported pIC50 was < 4.92

Test item c1ccc(Cn2ncc3cc(Nc4ncnc(NCC5CCCCC5)n4)ccc32)cc1 [Compound 727] ; c-Met (Homo sapiens, UniProt P08581); reported pIC50 was 4.96 to 5.07

Test item CCN(CC)CCOc1ccc(Nc2ncnc(-n3c(N)nc4ccccc43)n2)cc1OC [Compound 652] ; c-Met (Homo sapiens, UniProt P08581); reported pIC50 was 5.27 to 6.05

Test item COc1cc(Nc2ncnc(Nc3ccc(C(C)=O)cc3)n2)cc(OC)c1OC [Compound 698] ; c-Met (Homo sapiens, UniProt P08581); reported pIC50 was < 4.94

Test item COc1cc(Nc2ncnc(Nc3ccc4ccccc4c3)n2)cc(OC)c1OC [Compound 96] ; c-Met (Homo sapiens, UniProt P08581); reported pIC50 was < 4.95

Test item COc1cc(Nc2ncnc(Nc3cc(C(F)(F)F)ccc3F)n2)cc(OC)c1OC [Compound 618] ; c-Met (Homo sapiens, UniProt P08581); reported pIC50 was 5.10 to 5.26

Test item Nc1ncnc(Nc2ccc(C3CCCCC3)cc2)n1 [Compound 1021] ; c-Met (Homo sapiens, UniProt P08581); reported pIC50 was < 4.78

Test item COc1cc(Nc2ncnc(-n3c(NCc4cccnc4)nc4ccccc43)n2)cc(OC)c1OC [Compound 416] ; c-Met (Homo sapiens, UniProt P08581); reported pIC50 was < 5.03

Test item CN(c1cccc(Cl)c1)c1ncnc(Nc2cc(C(C)(C)C)on2)n1 [Compound 754] ; c-Met (Homo sapiens, UniProt P08581); reported pIC50 was < 4.90

Test item COc1ccc(CNc2nc3ccccc3n2-c2ncnc(Nc3cccc(CC(=O)O)c3)n2)cc1 [Compound 534] ; c-Met (Homo sapiens, UniProt P08581); reported pIC50 was < 5.03

Test item COc1cc(Nc2ncnc(-n3ccc4cc(O)ccc43)n2)cc(OC)c1OC [Compound 202] ; c-Met (Homo sapiens, UniProt P08581); reported pIC50 was 5.21 to 5.99

Test item CC(C)(C)c1cc(Nc2ncnc(Nc3ccc(C(N)=O)cc3)n2)[nH]n1 [Compound 502] ; c-Met (Homo sapiens, UniProt P08581); reported pIC50 was 5.17 to 5.94

Test item COc1cc(Nc2ncnc(Nc3cc(OC)c(OCCN4CCOCC4)c(OC)c3)n2)cc(OC)c1OC [Compound 562] ; c-Met (Homo sapiens, UniProt P08581); reported pIC50 was < 5.08

Test item COc1cc(Nc2ncnc(-n3c(Cl)nc4ccccc43)n2)cc(OC)c1OC [Compound 378] ; c-Met (Homo sapiens, UniProt P08581); reported pIC50 was 5.24 to 6.01

Test item COc1cc(Nc2ncnc(Nc3ncnc4[nH]cnc34)n2)cc(OC)c1OC [Compound 696] ; c-Met (Homo sapiens, UniProt P08581); reported pIC50 was < 4.94

Test item O=c1[nH]c2ccccc2n1-c1ncnc(Nc2nccc3ccccc23)n1 [Compound 689] ; c-Met (Homo sapiens, UniProt P08581); reported pIC50 was 5.01 to 5.17
